# target system: T1, human BCMA (B cell maturation antigen) (human, UniProt Q02223 1-184)
# T1 chain: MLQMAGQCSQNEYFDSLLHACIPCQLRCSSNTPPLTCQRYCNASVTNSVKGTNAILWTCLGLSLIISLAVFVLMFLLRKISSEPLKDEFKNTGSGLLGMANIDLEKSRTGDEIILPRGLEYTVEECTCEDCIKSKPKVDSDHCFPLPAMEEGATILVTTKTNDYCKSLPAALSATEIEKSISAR
# test method notes: cell-based or functional assay
measurement label: % Killing at 1 nM (ADCC of U266 cells, PBMC effectors, LDH release) (%)
Respond with the bare value in %.

Value of % Killing at 1 nM (ADCC of U266 cells, PBMC effectors, LDH release) reported for the binder chC13F12.1 (antibody, human IgG1, kappa, V domains shown) VH: QIQLVQSGPELKKPGETVKISCKASGYTFTHYSMNWVKQAPGKGLKWMGRINTETGEPLYADDFKGRFAFSLETSASTAYLVINNLKNEDTATFFCSNDYLYSCDYWGQGTTLTVSS VL: DIVLTQSPPSLAMSLGKRATISCRASESVTILGSHLIYWYQQKPGQPPTLLIQLASNVQTGVPARFSGSGSRTDFTLTIDPVEEDDVAVYYCLQSRTIPRTFGGGTKLEIKR is 20

Others:
Value of % Killing at 1 nM (ADCC of U266 cells, PBMC effectors, LDH release) reported for the binder chC12A3.2 (antibody, human IgG1, kappa, V domains shown) VH: QIQLVQSGPELKKPGETVKISCKASGYTFRHYSMNWVKQAPGKGLKWMGRINTESGVPIYADDFKGRFAFSVETSASTAYLVINNLKDEDTASYFCSNDYLYSLDFWGQGTTLTVSS VL: DIVLTQSPPSLAMSLGKRATISCRASESVTILGSHLIYWYQQKPGQPPTLLIQLASNVQTGVPARFSGSGSRTDFTLTIDPVEEDDVAVYYCLQSRTIPRTFGGGTKLEIKR is 32

Value of % Killing at 1 nM (ADCC of U266 cells, PBMC effectors, LDH release) reported for the binder chA7D12.2 (antibody, human IgG1, kappa, V domains shown) VH: QIQLVQSGPDLKKPGETVKLSCKASGYTFTNFGMNWVKQAPGKGFKWMAWINTYTGESYFADDFKGRFAFSVETSATTAYLQINNLKTEDTATYFCARGEIYYGYDGGFAYWGQGTLVTVSA VL: DVVMTQSHRFMSTSVGDRVSITCRASQDVNTAVSWYQQKPGQSPKLLIFSASYRYTGVPDRFTGSGSGADFTLTISSVQAEDLAVYYCQQHYSTPWTFGGGTKLDIKR is 10

Value of % Killing at 1 nM (ADCC of U266 cells, PBMC effectors, LDH release) reported for the binder chC11D5.3 (antibody, human IgG1, kappa, V domains shown) VH: QIQLVQSGPELKKPGETVKISCKASGYTFTDYSINWVKRAPGKGLKWMGWINTETREPAYAYDFRGRFAFSLETSASTAYLQINNLKYEDTATYFCALDYSYAMDYWGQGTTLTVSS VL: DIVLTQSPPSLAMSLGKRATISCRASESVTILGSHLIHWYQQKPGQPPTLLIQLASNVQTGVPARFSGSGSRTDFTLTIDPVEEDDVAVYYCLQSRTIPRTFGGGTKLEIKR is 18

All figures here come from patent US20120082661A1.
